# system: Human HDAC1 (Homo sapiens (Human))
# protocolNotes: HDAC1 fluorogenic peptide deacetylation inhibition assay
# Type: biochemical
# conditionSummary: Table 3; mean of two experiments ± standard deviation; read-out: HDAC1 IC50
metricName: IC50 (µM)

{"molecule": "O=C(NO)c1ccc(CN(c2ccccc2)c2ccccc2)cc1 [drawing 162]", "metricName": "IC50", "unitAbbrev": "µM", "endpointValue": 6.66}
{"molecule": "Cc1cc2ccccc2n1Cc1ccc(C(=O)NO)cc1 [drawing 158]", "metricName": "IC50", "unitAbbrev": "µM", "endpointValue": 5.34}
{"molecule": "O=C(NO)c1ccc(Cn2ccc3ccccc32)cc1 [drawing 157]", "metricName": "IC50", "unitAbbrev": "µM", "endpointValue": 5.83}
{"molecule": "Cc1cn(Cc2ccc(C(=O)NO)cc2)c2ccccc12 [drawing 159]", "metricName": "IC50", "unitAbbrev": "µM", "endpointValue": 6.79}

###

# system: HDAC8 (Homo sapiens (Human))
# Sequence (Q9BY41 whole entry): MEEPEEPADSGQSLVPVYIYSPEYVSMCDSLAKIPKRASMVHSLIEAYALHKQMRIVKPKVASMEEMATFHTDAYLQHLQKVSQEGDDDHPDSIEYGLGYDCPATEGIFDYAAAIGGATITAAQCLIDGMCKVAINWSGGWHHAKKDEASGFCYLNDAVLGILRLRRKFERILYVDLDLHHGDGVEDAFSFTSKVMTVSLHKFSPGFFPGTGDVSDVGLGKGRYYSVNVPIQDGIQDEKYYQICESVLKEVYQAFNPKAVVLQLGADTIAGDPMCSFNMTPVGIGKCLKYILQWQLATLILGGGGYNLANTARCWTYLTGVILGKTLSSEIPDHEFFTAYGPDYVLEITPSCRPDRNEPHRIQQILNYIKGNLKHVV
# protocolNotes: HDAC8 inhibition assay (fluorogenic diacyl peptide)
# Format: biochemical
# conditionSummary: average of two experiments; read-out: HDAC Isoform IC50 (μM) 8
metricName: IC50 (µM)

Use these answered entries as a reference point.
{"structureSmilesString": "O=C(NO)c1ccc(CN(c2ccccc2)c2ccccc2)cc1", "system": "HDAC8 (Homo sapiens (Human))", "unitAbbrev": "µM", "IC50": 2.38}
{"structureSmilesString": "CCN(CC)Cc1ccc(C(=O)NO)cc1", "system": "HDAC8 (Homo sapiens (Human))", "unitAbbrev": "µM", "IC50": 9.43}

(a) COC[C@H]1CCCN1Cc1ccc(C(=O)NO)cc1
(b) Cc1cn(Cc2ccc(C(=O)NO)cc2)c2ccccc12
(c) CC(C)N(Cc1ccc(C(=O)NO)cc1)C(C)C
Q) With regard to IC50, arrange the entries in ascending order, please. Form field (ranking): labels in requested order.
A) b, c, a
(b: 0.911 µM, c: 1.92 µM, a: 5.59 µM)

###

# system: Human HDAC1 (Homo sapiens (Human), UniProt Q13547)
# Sequence (Q13547 whole entry): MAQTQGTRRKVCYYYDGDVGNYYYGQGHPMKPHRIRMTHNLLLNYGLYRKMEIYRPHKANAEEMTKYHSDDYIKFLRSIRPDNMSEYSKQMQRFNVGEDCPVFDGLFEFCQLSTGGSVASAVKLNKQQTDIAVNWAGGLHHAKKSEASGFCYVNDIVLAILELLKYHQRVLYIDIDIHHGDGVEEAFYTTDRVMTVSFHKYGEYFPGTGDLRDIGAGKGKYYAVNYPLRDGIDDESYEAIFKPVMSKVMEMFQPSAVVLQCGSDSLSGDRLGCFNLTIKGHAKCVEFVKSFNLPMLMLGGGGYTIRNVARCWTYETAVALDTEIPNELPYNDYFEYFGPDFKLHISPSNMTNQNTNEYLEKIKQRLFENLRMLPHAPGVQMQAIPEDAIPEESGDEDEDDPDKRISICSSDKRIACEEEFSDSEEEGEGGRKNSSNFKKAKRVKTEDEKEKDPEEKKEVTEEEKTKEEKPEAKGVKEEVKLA
# protocolNotes: HDAC1 fluorogenic peptide deacetylation inhibition assay
# Format: biochemical
# conditionSummary: average of two experiments; read-out: HDAC Isoform IC50 (μM) 1
metricName: IC50 (µM)

Solved cases (5 shown):
{"compound": "O=C(NO)c1ccc(Cn2cnc3ccccc32)cc1 [Compound 27]", "unitAbbrev": "µM", "IC50": 8.54}
{"compound": "CN(C)c1ccc(Cc2ccc(C(=O)NO)cc2)cc1 [Compound 47]", "unitAbbrev": "µM", "IC50": 6.87}
{"compound": "COC[C@@H]1CCCN1Cc1ccc(C(=O)NO)cc1 [Compound 59]", "unitAbbrev": "µM", "IC50": 27.9}
{"compound": "CC(C)c1nc2ccccc2n1Cc1ccc(C(=O)NO)cc1 [Compound 39]", "unitAbbrev": "µM", "IC50": 27.7}
{"compound": "O=C(NO)c1ccc(Cn2cccc2)cc1 [Compound 41]", "unitAbbrev": "µM", "IC50": 5.73}

(A) CS(=O)(=O)NCCc1cn(Cc2ccc(C(=O)NO)cc2)c2ccccc12 [Compound 30]
(B) Cc1c(CN)c2ccccc2n1Cc1ccc(C(=O)NO)cc1
(C) CN(C)CCc1nc2ccccc2n1Cc1ccc(C(=O)NO)cc1 [Compound 38]
(D) CC(C)N(Cc1ccc(C(=O)NO)cc1)C(C)C [Compound 53]
Q) // smallest IC50 at index 0, largest at the end Returns: the labels listed in the requested order.
A) A, B, D, C
(A: 0.623 µM, B: 3.09 µM, D: 23.8 µM, C: 52.4 µM)
